target: DRB4*0101; assay: binding to purified HLA
assay metric: IC50 (nM)

Here's what some known entries look like.
# binder, IC50 [nM]
data = [
    ("AAAYFVAAFTLHAAA [Y4.F9.H12]", 81),
    ("AAAFFVAANTLHAAA [F4.N9.H12]", 876),
    ("AAAYFVAANTLHAAA [Y4.N9.H12]", 703),
]

P = AAAYFVAAWTLHAAA [Y4.H12]
Q = AAAFFVAANTLKADA [F4.N9.D14]
R = AAAWFVAANTLHAAA [W4.N9.H12]
With regard to IC50, arrange the entries in ascending order, please. # respond with the labels, arranged in the requested order
P, R, Q
(P: 279 nM, R: 606 nM, Q: 5520 nM)
